Quick reference: koff of the listed items.
# measurement-target: T1, Recombinant purified human PD-1 protein, residues Leu25-Thr168, with a C-terminal 6-His tag (Homo sapiens, UniProt Q15116)
# T1 construct: programmed cell death protein 1 (PD-1), human, residues Leu25-Thr168; also called programmed cell death protein 1; PD-1-His monomer; source: bought: R&D Systems (catalog# 8986-PD, lot# DDJM0417041)
# T1 sequence (Q15116 25-168): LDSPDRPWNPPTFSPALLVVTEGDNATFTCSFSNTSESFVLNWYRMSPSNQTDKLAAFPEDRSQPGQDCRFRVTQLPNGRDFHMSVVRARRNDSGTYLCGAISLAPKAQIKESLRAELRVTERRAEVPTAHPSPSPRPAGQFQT
# protocol-text: SPR; Biacore 8K, C1 chip (flat); mAb captured on amine-coupled goat anti-human IgG Fc, PD-1-His monomer as analyte (100 nM top, 3-fold dilutions), 1200 s dissociation; 25 C, HBS-EP+ pH 7.4; 1:1 Langmuir fit, apparent constants; 8 mAbs measured in two independent experiments
# condition-description: both partners purified
Express the result in s⁻¹ but write the number alone.

Solved cases (4 shown):
{"binder": "mAb23 (antibody, V domains shown, IgG4; also called analog of cemiplimab; cemip; source: HEK293 suspension cells, cotransfected, purified (Protein A)) VH: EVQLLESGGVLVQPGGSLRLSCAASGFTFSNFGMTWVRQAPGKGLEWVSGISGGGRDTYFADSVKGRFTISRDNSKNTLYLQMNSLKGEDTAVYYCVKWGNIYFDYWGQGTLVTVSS VL: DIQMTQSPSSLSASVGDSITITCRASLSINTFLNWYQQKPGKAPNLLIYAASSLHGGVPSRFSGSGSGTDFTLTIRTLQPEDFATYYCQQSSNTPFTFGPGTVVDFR", "test-readout": "koff", "observed-value": 0.000188}
{"binder": "mAb16 (antibody, V domains shown, IgG4; also called analog of dostarlimab; dostar; source: HEK293 suspension cells, cotransfected, purified (Protein A)) VH: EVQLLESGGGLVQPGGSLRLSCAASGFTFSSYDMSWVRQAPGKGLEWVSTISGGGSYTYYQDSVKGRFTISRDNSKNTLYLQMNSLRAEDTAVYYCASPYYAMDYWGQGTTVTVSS VL: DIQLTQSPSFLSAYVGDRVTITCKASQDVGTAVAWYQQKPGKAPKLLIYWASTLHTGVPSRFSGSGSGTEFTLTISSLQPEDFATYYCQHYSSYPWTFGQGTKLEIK", "test-readout": "koff", "observed-value": 0.000297}
{"binder": "mAb04 (antibody, V domains shown, IgG4; also called analog of retifanlimab; retifan; source: HEK293 suspension cells, cotransfected, purified (Protein A)) VH: QVQLVQSGAEVKKPGASVKVSCKASGYSFTSYWMNWVRQAPGQGLEWIGVIHPSDSETWLDQKFKDRVTITVDKSTSTAYMELSSLRSEDTAVYYCAREHYGTSPFAYWGQGTLVTVSS VL: EIVLTQSPATLSLSPGERATLSCRASESVDNYGMSFMNWFQQKPGQPPKLLIHAASNQGSGVPSRFSGSGSGTDFTLTISSLEPEDFAVYFCQQSKEVPYTFGGGTKVEIK", "test-readout": "koff", "observed-value": 0.000269}
{"binder": "mAb17 (antibody, V domains shown, IgG4; also called analog of camrelizumab; camre; source: HEK293 suspension cells, cotransfected, purified (Protein A)) VH: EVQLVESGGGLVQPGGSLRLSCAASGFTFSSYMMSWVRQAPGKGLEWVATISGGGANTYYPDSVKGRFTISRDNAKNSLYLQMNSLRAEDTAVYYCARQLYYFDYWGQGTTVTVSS VL: DIQMTQSPSSLSASVGDRVTITCLASQTIGTWLTWYQQKPGKAPKLLIYTATSLADGVPSRFSGSGSGTDFTLTISSLQPEDFATYYCQQVYSIPWTFGGGTKVEIK", "test-readout": "koff", "observed-value": 0.000526}

Please find the next binder below.
Please look up its koff: mAb03 (antibody, V domains shown, IgG4; also called analog of tislelizumab; tisle; source: HEK293 suspension cells, cotransfected, purified (Protein A)) VH: QVQLQESGPGLVKPSETLSLTCTVSGFSLTSYGVHWIRQPPGKGLEWIGVIYADGSTNYNPSLKSRVTISKDTSKNQVSLKLSSVTAADTAVYYCARAYGNYWYIDVWGQGTTVTVSS VL: DIVMTQSPDSLAVSLGERATINCKSSESVSNDVAWYQQKPGQPPKLLINYAFHRFTGVPDRFSGSGYGTDFTLTISSLQAEDVAVYYCHQAYSSPYTFGQGTKLEIK
7.54e-05
